test: yeast display, Sf9 membrane polyspecificity reagent, FACS + sequencing; frameworks hold sequencing errors
propertyLabel: polyreactivity (PSR sort gate)

{"seq": "QVQLVDSGGGLVQAGGSLRLSCAASGSIYNIYAMGWYRQAPGKERELVATITGIADSTYYADSVKGRFTISRDNAKNTVYLQMNSLKPEDTAVYYCAADKYVAEYDYWGQGTQVTVSS", "recordedMeasurement": "low polyreactivity"}
{"seq": "QVQLVESGGGLVQAGGSLRLSCAASGFTFFYYVMGWYRQAPGKERELVAAISQHGGSTYYADSVKGRFTISRDNAKNTVYLQMNSLKPEDTAVYYCAASPVVNRRGTYGYWGQGTQVTVSS", "recordedMeasurement": "high polyreactivity"}
{"seq": "QVQLVESGGGLDQAGGSLRLSCAASGITFKPYGMGWYRQAPGKERELVADITSGGITYYADSVKGRFTISRDNAKNTVYLQMNSLKPEDTAVYYCATGDLFVFYWGYVVRLYDYWGQGTQVTVSS", "recordedMeasurement": "low polyreactivity"}
{"seq": "QVQLVESGGGLVQAGGSLRLSCDASGSIFSQYAMGWDRQAPGKEWELVAAITWSGGSTYYADSVMGRFTFSRDNAKNTVYLQMNSLKPEDTEVYYCAATGYYYTRSSTWYRYYYWGQGTQVTVSS", "recordedMeasurement": "high polyreactivity"}

API: the following record is the query input.
Input QVQLVESGGGLVQAGGSLRLSCAASGSTFNRYAMGWYRQEPGTERELVASIRISGGSTYYADSVKGRFTISRDNAKNTVYLQMNSLKPEDTAVYYCNAKLFIRWFTYDFLGQGTQVTVSS . Output polyreactivity (PSR sort gate): low polyreactivity

###

assay: yeast display, Sf9 membrane polyspecificity reagent, FACS + sequencing; frameworks hold sequencing errors
propertyLabel: polyreactivity (PSR sort gate)

Here is how some sequences turned out for polyreactivity (PSR sort gate).
{"seq": "QVQLVESGGGLVQAGGSLRLSCAASGSTFQYKAMGWYRQAPGKERELVAAISRRGGSTYYADSVKRRFTISRDNAKNTVYFQMNSLKPADTAVYYCAKEKGYWSGYDYWGQGTQVTVSS", "propertyLabel": "polyreactivity (PSR sort gate)", "recordedMeasurement": "high polyreactivity"}
{"seq": "QVQLVESGGGLVQAGGSLRLSCAASGSIFYTNAMGWYRQAPGKERELVASIRTGGSTNYADSVKGRFTISRDNAKNTVYLQMNSLKPEDTAVYYCNADDPDYHGSIDDLDYDYWGQGTQVTVSS", "propertyLabel": "polyreactivity (PSR sort gate)", "recordedMeasurement": "low polyreactivity"}
{"seq": "QVQLVESGRGLVQAQGSLRLSCAASGRIFNYNAMGWYRQAPGNERELVAVISRRGGSTYYADSVKGRFTISRDYAKNTVYLQMNSLKPEDTAVYYCGADLPSYPYEYWGLGTQVTVSS", "propertyLabel": "polyreactivity (PSR sort gate)", "recordedMeasurement": "low polyreactivity"}
{"seq": "QVQLVESGGGLVQAGGSLRLSCAASGCIGRRYAMGWYRQAPGKERELVAAITSSGGGTYYADSVKGRFTISRDNAKNTVYFQINILTPEDTAVYYCAARVYGSHFYYRTRPYDYWGQGTQVTVSS", "propertyLabel": "polyreactivity (PSR sort gate)", "recordedMeasurement": "high polyreactivity"}

API: the following record is the query input.
Input QVQLVESGGGLVQAGGSLRLSCAASGRNFPYYAMGWYRQAPGKERELVATISSGGITNYADSVKGRFTISRDNAKNTVYLELNSLKPEDTAVYYCAADRHWSAGLWRYDYWGQGTQVTVSS . Output polyreactivity (PSR sort gate): high polyreactivity
